# test-name: Pharmacokinetic analysis, plasma and brain
# test-conditions: male, BALB/c, mouse, plasma, sc, 10 mg/kg
test-readout: Tmax (min)

>>> measured_value("COc1ccc(-c2ccn(CC(O)CN3CCOCC3)n2)cc1OC1CCCC1 (stereo not shown)")
10.2
